Reference for the values: patent US20240247080A1

- target.entity: T1, NPY2 receptor (human (printed as hNPY2R), UniProt P49146 1-381)
- T1 sequence (looked up): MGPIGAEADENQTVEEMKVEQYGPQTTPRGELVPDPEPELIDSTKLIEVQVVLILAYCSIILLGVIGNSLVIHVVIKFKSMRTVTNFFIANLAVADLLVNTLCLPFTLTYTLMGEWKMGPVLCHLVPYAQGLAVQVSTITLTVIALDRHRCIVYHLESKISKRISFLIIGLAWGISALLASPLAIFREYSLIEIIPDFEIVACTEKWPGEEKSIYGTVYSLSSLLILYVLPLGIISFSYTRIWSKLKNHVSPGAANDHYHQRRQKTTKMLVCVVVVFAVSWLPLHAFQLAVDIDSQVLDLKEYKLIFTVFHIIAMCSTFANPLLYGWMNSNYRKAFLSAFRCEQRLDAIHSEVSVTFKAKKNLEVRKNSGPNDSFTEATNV
- method: cell-based or functional assay
Starred links: 1 amine or outer side, 2 acyl side, 3 side chain; linkers in the order of their positions; H or OH if unused. Non-standard residues stand in square brackets, D forms with d. Groups on a side chain read outwards from the residue. No end group written: not given here. *: point of attachment. C20 diacid = O=C(O)CCCCCCCCCCCCCCCCCCC(=O)*; C18 diacid = O=C(O)CCCCCCCCCCCCCCCCC(=O)*; γGlu = O=C(O)[C@H](CCC(=O)[*:2])N[*:1]; AEEA = NCCOCCOCC(=O)O; Aib = CC(C)(N)C(=O)O
// EC50 hNPY2R 0.5% hP (CreLuc) lookup, one value per entry
Use nM as the unit, but write only the number.

Reference set (8 entries):
{"binder": "Y[Aib]EGTFTSDYSI[Aib]LEKQAQ[Aib]AFVQWLIK([AEEA-AEEA-γGlu-γGlu-γGlu-γGlu-C18 diacid])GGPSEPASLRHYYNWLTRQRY-NH2 (also: TFA salt) [Compound 173]", "EC50 hNPY2R 0.5% hP (CreLuc), nM": 12.4}
{"binder": "YXEGTFTSDYSIXLEKQAQXAFVEWLIKGGPSEGASLRHYYNWLTRQRY (Aib at 2, 13, 20; NMeR (N-methyl-L-arginine) at 48; K28 side chain carries C20DA-gGlu-gGlu-gGlu-gGlu-gGlu-gGlu-eLys; C-terminal amide) [Compound 236]", "EC50 hNPY2R 0.5% hP (CreLuc), nM": 31}
{"binder": "YXEGTFTSDYSIXLEKQAQXAFVEWLIKGGPSEYVSLRHYYNWLTRQRY (Aib at 2, 13, 20; K28 side chain carries C20DA-gGlu-gGlu-gGlu-gGlu-gGlu-gGlu-eLys; C-terminal amide) [Compound 217]", "EC50 hNPY2R 0.5% hP (CreLuc), nM": 18.6}
{"binder": "Y[Aib]EGTFTSDYSI[Aib]LEKQAQ[Aib]AFVQWLIK([γGlu-γGlu-γGlu-γGlu-γGlu-γGlu-C20 diacid])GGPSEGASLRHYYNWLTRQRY-NH2 (also: TFA salt) [Compound 223]", "EC50 hNPY2R 0.5% hP (CreLuc), nM": 13.2}
{"binder": "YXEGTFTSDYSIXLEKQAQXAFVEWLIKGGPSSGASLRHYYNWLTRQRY (Aib at 2, 13, 20; K28 side chain carries C20DA-gGlu-gGlu-gGlu-gGlu-gGlu-gGlu-eLys; C-terminal amide) [Compound 221]", "EC50 hNPY2R 0.5% hP (CreLuc), nM": 12.4}
{"binder": "YXEGTFTSDYSIXLEKQAQXAFVEWLIKGGPSSPASLRHYYNWLTRQRY (Aib at 2, 13, 20; K28 side chain carries C18DA-gGlu-gGlu-gGlu-gGlu-gGlu; C-terminal amide) [Compound 180]", "EC50 hNPY2R 0.5% hP (CreLuc), nM": 19.6}
{"binder": "Y[Aib]EGTFTSDYSI[Aib]LEKQAQ[Aib]AFVEWLIKGGPSYYASLRHYYNWLTRQRY-NH2 (not fully specified (residue 28); also: TFA salt) [Compound 203]", "EC50 hNPY2R 0.5% hP (CreLuc), nM": 9.07}
{"binder": "Y[Aib]EGTFTSDYSI[Aib]LEKQAQ[Aib]AFVQWLIKGGPSEGASLRHYYNWLTRQRY-NH2 (not fully specified (residue 28); also: TFA salt) [Compound 243]", "EC50 hNPY2R 0.5% hP (CreLuc), nM": 9.16}

Now examine the next entry.
Which EC50 hNPY2R 0.5% hP (CreLuc) reading was recorded for the binder Y[Aib]EGTFTSDYSI[Aib]LEKQAE[Aib]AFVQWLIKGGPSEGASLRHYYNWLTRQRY-NH2 (not fully specified (residue 28); also: TFA salt) [Compound 174] ? 11.5
